FYI, the data here is from patent US20050009924A1.

# System: transcriptional activity of hTERT
# experimental.details: SEAP reporter assay of hTERT expression, PhTERT-SEAP (H1299)
# Assay type: cell-based, human
# experimental.setup: 20 μM, PhTERT-SEAP(hTERT-H1299)
measured.metric: SEAP/vibility
A bare number is all that is needed in reply.

Some solved entries appear below for comparison.
[Q] Provide the reported SEAP/vibility (system: transcriptional activity of hTERT) for O=C(CCC1CCCC1)Nc1ccc(NC(=O)CCC2CCCC2)c2c1C(=O)c1ccccc1C2=O [VI19]
[A] 1.09

[Q] Provide the reported SEAP/vibility (system: transcriptional activity of hTERT) for O=C(Nc1ccc(NC(=O)c2ccccc2F)c2c1C(=O)c1ccccc1C2=O)c1ccccc1F [VI10]
[A] 1.03

---
[Q] Provide the reported SEAP/vibility (system: transcriptional activity of hTERT) for O=C(Nc1ccc(NC(=O)c2cccc(F)c2)c2c1C(=O)c1ccccc1C2=O)c1cccc(F)c1 [VI12]
[A] 1.14

[Q] Provide the reported SEAP/vibility (system: transcriptional activity of hTERT) for Cc1cc(C(=O)Nc2ccc(NC(=O)c3cc(C)oc3C)c3c2C(=O)c2ccccc2C3=O)c(C)o1 [VI26]
[A] 1.46

[Q] Provide the reported SEAP/vibility (system: transcriptional activity of hTERT) for O=C(Cc1cccs1)Nc1ccc(NC(=O)Cc2cccs2)c2c1C(=O)c1ccccc1C2=O [VI25]
[A] 1.39

----------
Each entry below carries its recorded viability at 48 h, 21 µM.
# experimental.details: MTT relative viability, PhTERT-SEAP (hTERT-BJ1) cells
# experimental.setup: human
# number only, unit % dropped from output

[Q] Give the reported value of viability at 48 h, 21 µM for this record: "Cc1ccc(C(=O)Oc2cccc3c2C(=O)c2cccc(OC(=O)c4ccc(C)cc4)c2C3=O)cc1"
[A] 98

[Q] Give the reported value of viability at 48 h, 21 µM for this record: O=C1c2cccc(SCCCCCCO)c2C(=O)c2cccc(SCCCCCCO)c21 [IIe, 1,5-Bis(hydroxyhexylthio)-anthraquinone]
[A] 70

[Q] Give the reported value of viability at 48 h, 21 µM for this record: "Cc1cccc(C(=O)Oc2cccc3c2C(=O)c2cccc(OC(=O)c4cccc(C)c4)c2C3=O)c1"
[A] 54

[Q] Give the reported value of viability at 48 h, 21 µM for this record: "Cc1ccccc1C(=O)Oc1cccc2c1C(=O)c1cccc(OC(=O)c3ccccc3C)c1C2=O"
[A] 82

[Q] Give the reported value of viability at 48 h, 21 µM for this record: "O=C(Cc1ccccc1)Oc1cccc2c1C(=O)c1cccc(OC(=O)Cc3ccccc3)c1C2=O"
[A] 97

----------
# Tested on: transcriptional activity of hTERT
# experimental.details: SEAP reporter assay of hTERT expression, PhTERT-SEAP (H1299)
# Assay type: cell-based, human
# experimental.setup: 23 μM, PhTERT-SEAP(hTERT-H1299)
measured.metric: SEAP/vibility
A bare number is all that is needed in reply.

Some solved entries appear below for comparison.
[Q] Give the reported value of SEAP/vibility for this record: O=C1c2ccccc2C(=O)c2c(NC(=O)C3CCCC3)ccc(NC(=O)C3CCCC3)c21 [VI20]
[A] 1.15

[Q] Give the reported value of SEAP/vibility for this record: O=C(CCCl)Nc1ccc(NC(=O)CCCl)c2c1C(=O)c1ccccc1C2=O [VI7]
[A] 1.28

[Q] Give the reported value of SEAP/vibility for this record: CC(Cl)C(=O)Nc1ccc(NC(=O)C(C)Cl)c2c1C(=O)c1ccccc1C2=O (stereo not shown) [VI9]
[A] 1.40

Here is another compound to look at.
[Q] Give the reported value of SEAP/vibility for this record: O=C(Nc1ccc(NC(=O)c2ccco2)c2c1C(=O)c1ccccc1C2=O)c1ccco1 [VI24]
[A] 1.30
